Source of measurements: the kinase profiling compilation of Christmann-Franck et al. (2016)

residual activity listing for selected compounds.
target: BRSK1 (human); test: radiometric filter-binding kinase assay; settings: compound 10.0 µM
The reply should consist of the numeric value with the unit placed after it.

These solved cases illustrate the format of a correct answer.
C=CC(=O)N1CCC[C@@H](n2nc(-c3ccc(Oc4ccccc4)cc3)c3c(N)ncnc32)C1    49%
FC(F)(F)c1ccc(-c2ccc(Oc3cncc4sc(-c5nn[nH]n5)cc34)cc2)cc1    104%
CNc1nc(-c2ccc3c(N)n[nH]c3c2)cc(N2C[C@@H](C(=O)NC3CCCCC3)CC[C@H]2C)n1    11%
N#Cc1c(O)c2c(-c3ccc(-c4ccccc4O)cc3)csc2[nH]c1=O    76%
CCCC(CCC)C(=O)O    102%
NC(=O)c1c(NC(=O)C2CC2)sc2c1CCCC2    90%
NCC(=O)Nc1ccc(-n2nc(C(F)(F)F)cc2-c2ccc3c(ccc4ccccc43)c2)cc1    89%
NC(=O)c1ccc(-c2ccc(Oc3cncc4sc(-c5nn[nH]n5)cc34)cc2)cc1    90%

Input line: I'd like to know its residual activity. The compound in question is O=C(Nc1ccccc1-c1cn2c(CN3CCNCC3)csc2n1)c1cnc2ccccc2n1
Output line: 87%

Input line: I'd like to know its residual activity. The compound in question is Cc1ccc2c(c1)C(=O)[C@@]1(O)CCN(c3ccccc3)C1=N2
Output line: 106%

Input line: I'd like to know its residual activity. The compound in question is O=c1c(O)c(-c2ccc(O)c(O)c2)oc2cc(O)c(O)c(O)c12
Output line: 7%

* * *

biological target: RPS6KA5 KD1 KD2 (human) (UniProt O75582); test: radiometric filter-binding kinase assay; conditions: compound 10.0 µM
Sequence (O75582 whole entry, looked up): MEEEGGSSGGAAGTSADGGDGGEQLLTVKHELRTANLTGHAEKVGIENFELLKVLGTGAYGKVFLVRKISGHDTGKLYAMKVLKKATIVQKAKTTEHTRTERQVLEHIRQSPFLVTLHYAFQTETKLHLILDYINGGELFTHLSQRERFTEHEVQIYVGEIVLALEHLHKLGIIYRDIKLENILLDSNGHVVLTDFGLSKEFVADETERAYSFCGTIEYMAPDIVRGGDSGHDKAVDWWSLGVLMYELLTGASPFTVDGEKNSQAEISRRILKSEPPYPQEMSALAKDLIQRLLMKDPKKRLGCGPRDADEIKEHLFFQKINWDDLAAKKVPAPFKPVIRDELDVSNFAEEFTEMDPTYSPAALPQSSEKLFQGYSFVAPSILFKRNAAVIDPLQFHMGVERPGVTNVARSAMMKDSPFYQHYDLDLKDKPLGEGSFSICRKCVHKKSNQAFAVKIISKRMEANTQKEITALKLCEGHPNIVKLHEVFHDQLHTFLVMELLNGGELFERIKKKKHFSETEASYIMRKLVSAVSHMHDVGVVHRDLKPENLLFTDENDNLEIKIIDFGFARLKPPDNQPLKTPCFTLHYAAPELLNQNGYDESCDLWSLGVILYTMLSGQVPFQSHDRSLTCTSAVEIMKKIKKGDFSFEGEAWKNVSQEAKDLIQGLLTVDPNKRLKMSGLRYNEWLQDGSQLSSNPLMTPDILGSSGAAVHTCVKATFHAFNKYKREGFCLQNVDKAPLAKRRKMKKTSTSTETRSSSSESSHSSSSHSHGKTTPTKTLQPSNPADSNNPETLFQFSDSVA
Rule: yes (1) for residual activity not less than 80%, no (0) for anything less.

Cc1nc(-c2ccc(OCC(C)C)c(C#N)c2)sc1C(=O)O    yes (1)
COc1cc(C(=O)N2CCOCC2)c(F)cc1Nc1ncc(C(F)(F)F)c(NC2CC2)n1    no (0)
Cc1cc(SCc2sc(-c3ccc(C(F)(F)F)cc3)nc2C)ccc1OCC(=O)O    yes (1)
Cc1ccc(=O)n(-c2ccccc2)c1    yes (1)
CCNc1nc(Nc2cc(F)c(C(=O)N3CCOCC3)cc2OC)ncc1C(F)(F)F    no (0)

Input line: Is the recorded value of residual activity equal to or greater than 80% for this compound? NC(=O)c1c(NC(=O)C2CC2)sc2c1CCCC2
Output line: yes (1)

Input line: Is the recorded value of residual activity equal to or greater than 80% for this compound? NC1(c2ccc(-c3nc4ccn5c(=O)[nH]nc5c4cc3-c3ccccc3)cc2)CCC1
Output line: no (0)

Input line: Is the recorded value of residual activity equal to or greater than 80% for this compound? N#Cc1c(O)c2c(-c3ccc(-c4ccccc4O)cc3)csc2[nH]c1=O
Output line: no (0)

Input line: Is the recorded value of residual activity equal to or greater than 80% for this compound? CCOC(=O)c1ccc(N2NC(=O)/C(=C/c3ccc([N+](=O)[O-])o3)C2=O)cc1
Output line: no (0)

* * *

biological target: MYLK (human); test: radiometric filter-binding kinase assay; details: compound 10.0 µM
residual activity listing for selected compounds.
Your answer is read as %, so omit the unit and give the number.

These solved cases illustrate the format of a correct answer.
COc1ccc2c(c1)c1c3c(c4c5ccccc5n(C)c4c1n2CC(O)CN(C)C)C(=O)NC3=O (centres undefined)    3
C=CC(=O)N1CCC[C@@H](n2nc(-c3ccc(Oc4ccccc4)cc3)c3c(N)ncnc32)C1    44
O=C(O)c1cc(N=Nc2ccc(S(=O)(=O)Nc3ccccn3)cc2)ccc1O    99
Cc1ccc(=O)n(-c2ccccc2)c1    89
Oc1ccc2ccccc2c1SSc1c(O)ccc2ccccc12    87
COc1cc(C(=O)N2CCOCC2)c(F)cc1Nc1ncc(C(F)(F)F)c(NC2CC2)n1    8
CC1=C(CO)C(=O)O[C@@H]([C@@H](C)[C@H]2CC[C@H]3[C@@H]4C[C@H]5O[C@]56[C@@H](O)C=CC(=O)[C@]6(C)C4CC[C@]23C)C1 (some centres undefined)    114
NC(=O)Nc1ccc2c(c1)/C(=C/c1cc(-c3cccnc3)c[nH]1)C(=O)N2    1

// next item, residual activity requested
Input line: I'd like to know its residual activity. The compound in question is CCOC(=O)c1ccc(N2NC(=O)/C(=C/c3ccc([N+](=O)[O-])o3)C2=O)cc1
Output line: 109
